Measured Target: human H1 receptor (Homo sapiens)
Construct: purchased Euroscreen SA, Brussels, Belgium ES-390-M; host or cells: CHO-K1
Sequence (P35367 whole entry): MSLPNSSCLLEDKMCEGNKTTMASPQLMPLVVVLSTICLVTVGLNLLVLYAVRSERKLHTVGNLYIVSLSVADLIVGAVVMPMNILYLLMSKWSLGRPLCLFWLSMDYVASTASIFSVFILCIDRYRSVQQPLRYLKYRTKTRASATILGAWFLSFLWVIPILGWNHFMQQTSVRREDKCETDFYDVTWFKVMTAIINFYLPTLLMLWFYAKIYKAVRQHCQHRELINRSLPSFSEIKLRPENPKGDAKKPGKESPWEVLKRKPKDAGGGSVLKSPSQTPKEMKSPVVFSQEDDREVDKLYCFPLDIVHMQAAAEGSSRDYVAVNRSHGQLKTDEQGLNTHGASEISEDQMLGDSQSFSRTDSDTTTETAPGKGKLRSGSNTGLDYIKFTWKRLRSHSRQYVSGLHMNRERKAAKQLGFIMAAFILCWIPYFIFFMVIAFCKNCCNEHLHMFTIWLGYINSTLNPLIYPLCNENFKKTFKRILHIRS
Protocol Notes: Histamine H1 receptor binding, competition displacement of [3H]-pyrilamine
Measurement Context: displacement of 1 nM [3H]-pyrilamine; membranes from recombinant CHO-K1 cells expressing the human H1 receptor; 1 hour at room temperature; read-out: H1 pKi/[1328_S] (converted)
Endpoint Name: Ki (nM)

>  <Structure As Smiles>
O=C(O)Cc1ccccc1C(=O)N1CCC(CN2CCC(Oc3ccc(Cl)c(Cl)c3)CC2)CC1

>  <Endpoint Name>
Ki

>  <Measured Number>
251

$$$$
>  <Structure As Smiles>
Cc1c(Cl)ccc(OC2CCN(CC3CCN(C(=O)c4ccccc4C(=O)O)CC3)CC2)c1Cl

>  <Endpoint Name>
Ki

>  <Measured Number>
63.1

$$$$

(1) CS(=O)(=O)c1cc(C(=O)N2CCC(CN3CCC(Oc4ccc(Cl)c(Cl)c4)CC3)CC2)ccc1O
(2) O=C(O)c1ccccc1C(=O)N1CCC(CN2CCC(Oc3ccc(Cl)c(Cl)c3)CC2)CC1
(3) Cc1c(OC2CCN(CC3CCN(C(=O)c4ccccc4C(=O)O)CC3)CC2)ccc(Cl)c1Cl
stdin: Hey, quick one: sort these by Ki, largest value first please. Answer by writing out the labels in the requested order.
stdout: 2, 3, 1
(2: 316 nM, 3: 200 nM, 1: 31.6 nM)
